These measurements were taken from patent US20040147432A1.

Biological target: human melanin concentrating hormone type 2 receptor (MCH-2R) (human, UniProt Q969V1 1-340)
Sequence (Q969V1 whole entry, form in doubt): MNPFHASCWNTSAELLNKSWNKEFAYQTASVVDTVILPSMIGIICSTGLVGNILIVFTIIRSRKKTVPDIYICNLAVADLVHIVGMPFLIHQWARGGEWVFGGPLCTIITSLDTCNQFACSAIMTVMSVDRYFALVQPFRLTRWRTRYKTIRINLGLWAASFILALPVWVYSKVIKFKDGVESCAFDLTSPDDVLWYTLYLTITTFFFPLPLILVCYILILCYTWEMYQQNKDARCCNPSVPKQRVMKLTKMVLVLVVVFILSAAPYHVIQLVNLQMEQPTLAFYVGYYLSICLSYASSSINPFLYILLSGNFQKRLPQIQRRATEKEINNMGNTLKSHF
Assay: cell-based or functional assay
Bridges are numbered along the chain shown (N, C = ends). Where no end group is shown, it is not given here.
ENDPOINT LABEL: Activation % at 10 µM (aequorin functional assay) (%)

Activation % at 10 µM (aequorin functional assay) lookup needed for DFDMLRCMLGRVYRPCWAV (disulfide 7-16, also called Ala^18) [SEQ. ID. NO. 55] , thanks.
97

Also, DFAMLRCMLGRVYRPCWQV (disulfide 7-16, also called Ala^3) [SEQ. ID. NO. 43] please.
95

Also, DFDMLRCMLGRVFRPCYQV (disulfide 7-16, label prints Tyr^17 while the radioligand is Phe^13, Tyr^19; also called Phe^13, Tyr^17) [SEQ. ID. NO. 57] please.
92

Also, DFDMLRCMLGRAYRPCWQV (disulfide 7-16, also called Ala^12) [SEQ. ID. NO. 50] please.
98

Also, DFDALRCMLGRVYRPCWQV (disulfide 7-16, also called Ala^4) [SEQ. ID. NO. 44] please.
100

Also, DFDMLRCMLGRVYAPCWQV (disulfide 7-16, also called Ala^14) [SEQ. ID. NO. 52] please.
81
